Assay: Oral bioavailability in ZDF rat
Assay type: ADME, organism-based
Conditions: in vivo
Observable: bioavailability (%)
A number alone suffices; assume %.

stdin: Please report the recorded bioavailability for "CN1CCN(c2ccc(NCCNc3ccc([N+](=O)[O-])c(N)n3)nc2-c2ccc(Cl)cc2Cl)C(=O)C1" .
stdout: 30

Sourced from ChEMBL document CHEMBL4610055
